Source: the supplement of paper PMC10567573

B1: HDAC6 (parent)
chain: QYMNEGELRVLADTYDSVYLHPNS

Variants of: B1
Assay: protein stability index of a GFP-peptide fusion (GPS, HEK-293T) (PSI 1-6); higher = more stable;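 note: lentivirally expressed fusions sorted by FACS into six bins by GFP to DsRed ratio, PSI derived from sequencing read proportions per bin multiplied by bin number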
Conditions: c terminus: a fixed tail appended
outcome_measure: protein stability index
Quick one: just the number, no unit, thanks!

## Task Give recorded protein stability index. V18N
## Result 2.98

New cases:
## Task Give recorded protein stability index. P22D
## Result 2.37

## Task Give recorded protein stability index. G6Q
## Result 1.91

## Task Give recorded protein stability index. R9H
## Result 3.19

## Task Give recorded protein stability index. G6F
## Result 2.94

## Task Give recorded protein stability index. G6D
## Result 1.89

## Task Give recorded protein stability index. Y2I
## Result 1.94

## Task Give recorded protein stability index. L20I
## Result 1.39

## Task Give recorded protein stability index. D16P
## Result 2.56

## Task Give recorded protein stability index. N23K
## Result 2.36

## Task Give recorded protein stability index. Y2E
## Result 2.9

## Task Give recorded protein stability index. E5L
## Result 2.12

## Task Give recorded protein stability index. E7N
## Result 1.72

## Task Give recorded protein stability index. D13N
## Result 2.23

## Task Give recorded protein stability index. Y2Q
## Result 2.47

## Task Give recorded protein stability index. N23L
## Result 1.6

## Task Give recorded protein stability index. S24N
## Result 2.04

## Task Give recorded protein stability index. L8D
## Result 2.7
